target: Cytochrome P450 3A4 (Homo sapiens) (UniProt P08684); assay: Cytochrome panel assay with activity outcomes; conditions: recombinant CYP, pro-luciferin dealkylation, luminescence, p450-cyp3a4; series mostly up to 57.1 µM
Sequence (P08684 whole entry, looked up): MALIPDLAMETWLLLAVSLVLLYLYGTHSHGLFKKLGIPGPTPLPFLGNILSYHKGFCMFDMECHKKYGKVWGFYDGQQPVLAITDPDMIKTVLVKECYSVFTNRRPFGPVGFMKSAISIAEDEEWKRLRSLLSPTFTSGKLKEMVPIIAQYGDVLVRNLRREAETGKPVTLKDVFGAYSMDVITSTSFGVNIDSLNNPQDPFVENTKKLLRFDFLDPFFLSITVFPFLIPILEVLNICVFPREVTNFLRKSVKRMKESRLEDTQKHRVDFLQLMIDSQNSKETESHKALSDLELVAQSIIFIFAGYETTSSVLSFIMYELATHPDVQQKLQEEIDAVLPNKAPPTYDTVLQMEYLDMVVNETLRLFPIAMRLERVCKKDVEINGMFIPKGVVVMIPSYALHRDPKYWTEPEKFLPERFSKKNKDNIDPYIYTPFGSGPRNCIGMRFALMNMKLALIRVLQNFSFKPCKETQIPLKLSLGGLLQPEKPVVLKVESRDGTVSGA
Out of some 16,000 compounds screened, about 5,100 (32%) were called active. Roughly 25% stayed inconclusive and do not appear here. Calls follow the shape of the dose curve; as a rule, active = well fitted curve in the direction sought with a large enough effect; inconclusive = small, poorly fitted or top-dose-only effect, or effect the other way; inactive = no such curve, though single readings can be large or run the other way. The list shows a part of the results.
Outcomes you can answer with include only these: Yes (active), No (inactive)

Use these answered entries as a reference point.
Mol: COc1ccc(C(=O)N2CCC3(CCN(Cc4ccncc4)CC3)CC2)cc1
Assay System: Cytochrome P450 3A4 (Homo sapiens) (UniProt P08684)
Assigned Class: Yes

Mol: CCC1(c2ccccc2)C(=O)NCNC1=O
Assay System: Cytochrome P450 3A4 (Homo sapiens) (UniProt P08684)
Assigned Class: No

Mol: CC(=O)N1CCC2(CCN(Cc3ccncc3)CC2)CC1
Assay System: Cytochrome P450 3A4 (Homo sapiens) (UniProt P08684)
Assigned Class: No

Mol: CCOC(=O)Oc1c(OC)cc(C(=O)O[C@H]2C[C@H]3CN4CCc5c([nH]c6cc(OC)ccc56)[C@@H]4C[C@H]3[C@@H](C(=O)OC)[C@@H]2OC)cc1OC
Assay System: Cytochrome P450 3A4 (Homo sapiens) (UniProt P08684)
Assigned Class: No

Below: the item to evaluate.
QUERY: Test call for this compound, please: O=C(O)[C@@H]1C[C@@H](C(=O)O)N1
RESULT: No
